assayed_target: VirF (Shigella flexneri, UniProt P0A2T1)
assay_name: In vivo dose-response, VirF-activated virB-lacZ fusion in E. coli
Format: cell-based
Parameters: expressed in transfected cells; host or cells: E. coli SME4382 (virB-lacZ, pHG165virF)
experimental_setup: IC50, virB-lacZ reporter fusion expression, E. coli strain with plasmid-expressed VirF
property: IC50

Entry CCCCN1C=C(c2ccc3ccccc3n2)C(C[N+](=O)[O-])c2ccccc21 (stereo not shown) [Compound 1] , system VirF (Shigella flexneri, UniProt P0A2T1): what IC50 was measured?
~8 µM

----------
assayed_target: RhaS-GB1^201b (Escherichia coli, UniProt P09377, L201R)
Construct: solubility-enhancement tag to the C-terminus of full-length RhaS L201R; GB1basic (basic variant of GB1 solubility-enhancement tag) (C); made in house; host or cells: E. coli Acella, pET21-derived plasmid
Sequence (P09377 whole entry L201R): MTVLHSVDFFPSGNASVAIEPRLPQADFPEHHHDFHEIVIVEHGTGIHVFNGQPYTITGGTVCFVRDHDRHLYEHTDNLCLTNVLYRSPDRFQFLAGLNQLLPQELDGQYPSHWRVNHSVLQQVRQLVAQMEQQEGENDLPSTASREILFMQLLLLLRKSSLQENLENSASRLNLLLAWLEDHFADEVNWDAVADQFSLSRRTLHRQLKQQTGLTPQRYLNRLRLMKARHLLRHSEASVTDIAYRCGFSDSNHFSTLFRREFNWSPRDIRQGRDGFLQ
assay_name: EMSA in vitro DNA binding by RhaS-GB1^201b
Type: biochemical, E. coli
Text: All proteins for this study were expressed in E. coli. Untagged CRP was purified by Ni^2+-affinity chromatography as described. Lad protein was purified by ammonium sulfate precipitation and phosphocellulose column chromatography as described. […] IRD700- and DY682-labeled oligos were from Eurofins MWG Operon. […] EMSA gels were imaged using an Odyssey infrared imager (LI-COR, Lincoln, Nebr.), and quantified using the Odyssey software, version 3.0.30. […]
pIC50: −log10 of the molar value.
property: pIC50

Can you share its pIC50? I mean this molecule: CCCCN1C=C(c2ccc3ccccc3n2)C(C[N+](=O)[O-])c2ccccc21 (stereo not shown)
~4.15

Hello, the source for this data is patent US20140088144A1, in case you need it.
